Tested on: SR leukemia
Test: NCI tumour cell line growth inhibition, 48 h
measured quantity: TGI

Record `CN1CC[C@@]2(c3cccc(O)c3)CC(=O)/C(=C/c3ccc(Cl)c(Cl)c3)[C@H]1C2` . Reported TGI: 5.92 µM

---

System: UACC-62 melanoma
Test: NCI tumour cell line growth inhibition, 48 h
measured quantity: TGI

Record C=C(Cl)C(Cl)(CBr)CCCC(C)C (stereo not drawn) . Reported TGI: > 100 µM

Record COc1ccc2c(c1)C1Oc3ccccc3CC1CO2 (stereo not drawn) . Reported TGI: > 100 µM

Record COc1ccc(/C=C2\CC3C4CC=C5C[C@@H](N6CCCC6)CC[C@]5(C)C4CC[C@]3(C)[C@H]2O)cc1OC (stereo partly drawn) . Reported TGI: 16 µM

Record `Nc1ncnc2occ(-c3ccc(NC(=O)Nc4cccc(C(F)(F)F)c4)cc3)c12` . Reported TGI: 6.54 µM

Record `O=C1CSc2ccnc(=O)n21` . Reported TGI: > 100 µM

---

Each item that follows carries a reported TGI.
Tested on: OVCAR-3 ovarian
Experiment: NCI tumour cell line growth inhibition, 48 h

Some compounds with recorded TGI:
COc1ccc(-n2c(C)nc3ccc(NC4OCC(OC(C)=O)C(OC(C)=O)C4OC(C)=O)cc3c2=O)cc1 (configuration not stated); > 100 µM
C=C1C(=O)OC2/C=C(CO)/C=C\C3OC3(C)CC(OC(=O)/C(C)=C/COC(C)=O)C12 (configuration not stated); 6.68 µM

Record Cc1nc2sc(C(=O)Nc3cccc4c3OCCO4)c(N)c2cc1C(C)O (configuration not stated) . Reported TGI: > 100 µM

Record `O=C(Nc1cccc2[nH]c(C(F)(F)F)nc12)c1ccc(Br)cc1F` . Reported TGI: 16.8 µM

---

System: SNB-19 CNS
Test: NCI tumour cell line growth inhibition, 48 h
measured quantity: TGI

CCc1n[nH]c(=O)n1N; > 100 µM
C#CCNC(CCCN=C(N)N)C(=O)O (stereo not given); > 100 µM
Cc1nc2sc(C(=O)Nc3cccc4c3OCCO4)c(N)c2cc1C(C)O (stereo not given); > 100 µM
NC(N)=N/N=C/c1c(Cl)nc2n1CCS2; > 100 µM

// moving on: another record for TGI
Record `COc1cccc(C2=C(c3cn(C)c4c(C)cccc34)C(=O)NC2=O)c1` . Reported TGI: > 25 µM

---

Test system: U251 CNS
Use one of these outcomes when replying: label 1 for active, label 0 for inactive

Please review the following examples before continuing.
CCOC(=O)c1ccc(N[C@@H]2c3cc4c(cc3C(c3cc(OC)c(O)c(OC)c3)[C@H]3C(=O)OCC32)OCO4)cc1 (some centres undefined); label 1
Cc1nc2sc(C(=O)Nc3cccc4c3OCCO4)c(N)c2cc1C(C)O (centres undefined); label 0
O=C(/C=C/c1cccc(Cl)c1)c1ccccc1; label 0
CC(C)C[C@H](NC(=O)[C@@H](N)Cc1cccc2ccccc12)B(O)O; label 1
COc1cc(/C=C/C(=O)c2cccc(-n3cc(-c4ccccc4)[nH]c3=O)c2)ccc1O; label 0

q: Please state the recorded outcome for this molecule: `Cc1nc2ccccc2c(/C=C/c2ccc(C(F)(F)F)cc2)c1C(=O)/C=C/c1ccccc1`
a: label 0

q: Please state the recorded outcome for this molecule: COc1cc(/C=C2\CC3C4CC=C5C[C@@H](N6CCCC6)CC[C@]5(C)C4CC[C@]3(C)[C@H]2OC(C)=O)ccc1OCCCn1ccnc1 (some centres undefined)
a: label 1

q: Please state the recorded outcome for this molecule: `Cc1ccc(-c2csc3ncnc(Nc4cccc(O)c4)c23)cc1`
a: label 0

q: Please state the recorded outcome for this molecule: `CCOC(=O)c1nc2sc(Cl)cn2c1/C=N/N=C(N)N`
a: label 0

---

Each item that follows carries a reported TGI.
Tested on: RXF 393 renal
Test: NCI tumour cell line growth inhibition, 48 h

Some compounds with recorded TGI:
COc1ccc(/C=N/n2c(Cc3ccccc3)n[nH]c2=O)c(OC)c1; > 63.2 µM
O=C(Nc1ccc(Br)cc1)c1cc(Br)ccc1O; 3.89 µM
O=S(=O)([O-])c1ccc(C=Nc2ccccc2)c([O-])c1.O=S(=O)([O-])c1ccc(C=Nc2ccccc2)c([O-])c1.[Co+2]; > 100 µM
COc1ccccc1OC/C(N=Cc1cccnc1)=N/NC(=O)c1ccncc1; > 100 µM

// moving on: another record for TGI
Record `CN1C=C(C(N)=O)Cc2ccsc21` . Reported TGI: > 100 µM

---

Tested on: COLO 205 colon
Assay: NCI tumour cell line growth inhibition, 48 h; in the data active = GI50 below about 0.43 µM; inactive = the rest
Use one of these outcomes when replying: active, inactive

O=C1CC[C@@H]2[C@H]3CCC(=O)c4c3c(c3cccc(O)c3c4O)O[C@@]23C(=O)c2cccc(O)c2C(O)=C13; inactive
Cc1ccc(-c2csc3ncnc(Nc4cccc(O)c4)c23)cc1; inactive
O=[N+]([O-])c1cc2c(ccc3ccccc32)o1; active
CCOC(=O)CCC(NC(=O)c1ccc(Oc2nc3cc(N)cc(N)c3nc2-c2ccccc2)cc1)C(=O)OCC (stereo not given); inactive

q: Please state the recorded outcome for this compound: `O=C1c2c[n+](Cc3ccccc3)ccc2-c2nc3ccccc3c3ccnc1c23`
a: active

---

Test system: SN12C renal
Assay: NCI tumour cell line growth inhibition, 48 h
measured quantity: TGI

Some molecules with recorded TGI:
O=C1C=C(c2ccccc2)NC1(c1ccccc1)c1cc(-c2ccccc2)[nH]c1-c1ccccc1 (stereo unspecified); > 100 µM
CC(Oc1ccc(Cl)cc1Cl)C(=O)NN1C(=O)CC(=O)NC1=S (stereo unspecified); > 100 µM
Cc1ccc(C(=O)c2[nH]c(NCc3ccccc3)c(C(=S)Nc3ccccc3)c2N)cc1; 28.8 µM
COC(=O)c1ccc(C)cc1C1CN=NC12Cc1c(C)cccc1C2=O (stereo unspecified); > 95.6 µM
CCOP(=O)(OCC)/C(C#N)=C/c1cccn1C; > 100 µM

`Cc1ccccc1-c1cc(=O)c2cc(C)c(C)c(C(=O)O)c2o1` tested on SN12C renal gave TGI: > 100 µM

`O=C(Cn1c(C(=O)/C=C/c2ccc(Cl)c(Cl)c2)nc2ccccc21)c1ccccc1` tested on SN12C renal gave TGI: 34.4 µM

`c1ccc([P+](Cc2ccc(C[P+](c3ccccc3)(c3ccccc3)c3ccccc3)s2)(c2ccccc2)c2ccccc2)cc1` tested on SN12C renal gave TGI: > 100 µM

`COc1ccc(-c2c(C#N)c(N)nc(Sc3ccccc3N)c2C#N)cc1` tested on SN12C renal gave TGI: > 100 µM

`CN(C)Cc1cc(C(=O)/C=C/c2ccc(Cl)cc2Cl)cc(CN(C)C)c1O` tested on SN12C renal gave TGI: 6.96 µM

`O=c1oc2cc(O)ccc2cc1-c1nc2ccccc2o1` tested on SN12C renal gave TGI: > 100 µM

N#Cc1ccccc1NC(=O)C(O)C(O)C(O)C(O)C=O (stereo unspecified) tested on SN12C renal gave TGI: > 100 µM

COc1cccc2c1C(=O)c1c(O)c3c(c(O)c1C2=O)C[C@@](O)(C(=O)CO)C[C@@H]3OC1CC2C(OCN2CN2COC3C(C)OC(O[C@H]4C[C@](O)(C(=O)CO)Cc5c(O)c6c(c(O)c54)C(=O)c4c(OC)cccc4C6=O)CC32)C(C)O1 (stereo partly specified) tested on SN12C renal gave TGI: 0.101 µM

`CC(C)CC1C(=O)OC(C)(C)OC1=O` tested on SN12C renal gave TGI: > 100 µM

CC1(c2cccc(C(F)(F)F)c2)CC(c2cccc(C(F)(F)F)c2)=C(C#N)C(=C(C#N)C#N)N1 (stereo unspecified) tested on SN12C renal gave TGI: 32.8 µM

`O=C1OC(=O)c2c1cc1cc3c(cc1c2-c1ccc2c(c1)OCO2)OCO3` tested on SN12C renal gave TGI: > 100 µM

`CC(C)(CO)CNc1nc(N)nc(Cl)c1C=O` tested on SN12C renal gave TGI: 55.3 µM

CC(=O)OC1CCC2(C)C(=CCC3C2CCC2(C)C3CC3OC4(CCC(C)CN4)C(C)C32)C1 (stereo unspecified) tested on SN12C renal gave TGI: > 100 µM

`CC(C)(C)c1ccc(OCCCCCCCN2CCNCC2)cc1` tested on SN12C renal gave TGI: 7.62 µM

CC1(C)CCOC(Sc2ccccc2)C1 (stereo unspecified) tested on SN12C renal gave TGI: > 100 µM

`O=C1/C(=C/c2ccc([N+](=O)[O-])s2)Oc2ccc(Br)cc21` tested on SN12C renal gave TGI: 2.93 µM

---

Tested on: SW-620 colon
Assay: NCI tumour cell line growth inhibition, 48 h
measured quantity: TGI

Some compounds with recorded TGI:
CCOC(=O)N1C/C(=C\c2ccc(N(C)C)cc2)C(=O)/C(=C/c2ccc(N(C)C)cc2)C1; > 100 µM
O=C(O)CNc1ncc2c(n1)-c1ccccc1OC2; > 100 µM
COc1ccc(-c2cc(-c3ccco3)c(C#N)c(=O)n2C2OC(COC(C)=O)C(OC(C)=O)C(OC(C)=O)C2OC(C)=O)cc1 (stereo not given); > 100 µM
C=C1C(=O)OC2/C=C(\CO)C3OC3C3OC3(C)CC(OC(=O)/C(=C/C)COC(C)=O)C12 (stereo not given); 2.8 µM
O=C1c2ccccc2-n2c1nc1ccc([N+](=O)[O-])cc1c2=O; > 100 µM

`NC(=O)c1c(-c2ccccc2)c(-c2ccccc2)cc2c(=O)c3ccccc3[nH]c12` tested on SW-620 colon gave TGI: > 100 µM

`O=C(O)c1cc(-c2ccc3cc(O)c(O)cc3c2)ccc1O` tested on SW-620 colon gave TGI: > 12.5 µM

`COc1c(O)ccc(/C=N/NC(=S)NCOCCOC(C)=O)c1OC` tested on SW-620 colon gave TGI: > 100 µM

Nc1ncnc2c1ncn2C1OC(F)(COS(N)(=O)=O)C(O)C1O (stereo not given) tested on SW-620 colon gave TGI: > 100 µM

`C(#Cc1ccccc1C#Cc1cnccn1)c1cnccn1` tested on SW-620 colon gave TGI: > 100 µM
